# credit: the supplement of paper PMC10899765

Could you please report measured percent viability for the items listed next?
tested on: MCF10A; assay: percent viability (nuclei count relative to siNT); higher = more viable cells; conditions: 20 nM; 72 h
Hey, just the number and the unit after it is fine.

Item AAUGCACCUGGGCAAGGAUUCA [hsa-miR-502-3p] has what recorded percent viability?
38.5%

Do the same for AUGGCCAAAACUGCAGUUAUUUU [hsa-miR-548s] please
37.4%

Do the same for GGAUCCGAGUCACGGCACCA [hsa-miR-4454] please
56%

Do the same for GUGGGCUGGGCUGGGCUGGGCC [hsa-miR-3620-5p] please
31.3%

Do the same for UAGACCAUCUUUCUAGAGUAU [hsa-miR-6502-3p] please
102%

Do the same for AGUAGAGAGGAAAAGUUAGGGUC [hsa-miR-6832-5p] please
64.7%
